Reference source for all entries: the supplement of paper PMC13380429

# maps each entry to its drug sensitivity score
system: Calu-3; test: drug sensitivity score (DSS) for viability; higher = more toxic; extreme values may be limits of the assay; conditions: 72 h
Hey, just send me the number, nothing else.

C#C[C@]1(O)CC[C@H]2[C@@H]3CCC4=CC(=O)CC[C@@H]4[C@H]3CC[C@@]21CC [norgestrel] | 0
Cc1nccc2c1[nH]c1ccccc12 [harmane] | 0
CC(C)(C)S(=O)(=O)N[C@H]1CC[C@H](C(=O)Nc2ccc(C(F)(F)F)cn2)CC1 [velneperit] | 0
C#C[C@]1(O)CC[C@H]2[C@@H]3CCC4=CC(=O)CC[C@@H]4[C@H]3C(=C)C[C@@]21CC [etonogestrel] | 0
CCN1CCCC1CNC(=O)c1cc(S(=O)(=O)CC)c(N)cc1OC (stereo not drawn) [amisulpride] | 0
Fc1ccc(C(OCCN2CCN(CCCc3ccccc3)CC2)c2ccc(F)cc2)cc1 [vanoxerine] | 0.6
c1cc2c(cc1C1CCCCC1)c1c3n2CCNC3CCC1 (stereo not drawn) [tetrindole] | 7.4
COc1ccc(-c2ccc(=N)n(CCCC(=O)O)n2)cc1 [gabazine] | 0

The molecule CN1CCC(OC(c2ccccc2)c2ccccc2)CC1 [diphenylpyraline] , when measured on Calu-3, yielded drug sensitivity score of 0

Assay Calu-3, sample CNC(=O)c1ccc(Nc2ncc(C(F)(F)F)c(NCc3nccnc3N(C)S(C)(=O)=O)n2)cc1 [defactinib] , drug sensitivity score read: 0
